FYI, the data here is from ChEMBL document CHEMBL3425486.

STUDY_TARGET: ATP-dependent translocase ABCB1 (Homo sapiens)
Sequence (P08183 whole entry): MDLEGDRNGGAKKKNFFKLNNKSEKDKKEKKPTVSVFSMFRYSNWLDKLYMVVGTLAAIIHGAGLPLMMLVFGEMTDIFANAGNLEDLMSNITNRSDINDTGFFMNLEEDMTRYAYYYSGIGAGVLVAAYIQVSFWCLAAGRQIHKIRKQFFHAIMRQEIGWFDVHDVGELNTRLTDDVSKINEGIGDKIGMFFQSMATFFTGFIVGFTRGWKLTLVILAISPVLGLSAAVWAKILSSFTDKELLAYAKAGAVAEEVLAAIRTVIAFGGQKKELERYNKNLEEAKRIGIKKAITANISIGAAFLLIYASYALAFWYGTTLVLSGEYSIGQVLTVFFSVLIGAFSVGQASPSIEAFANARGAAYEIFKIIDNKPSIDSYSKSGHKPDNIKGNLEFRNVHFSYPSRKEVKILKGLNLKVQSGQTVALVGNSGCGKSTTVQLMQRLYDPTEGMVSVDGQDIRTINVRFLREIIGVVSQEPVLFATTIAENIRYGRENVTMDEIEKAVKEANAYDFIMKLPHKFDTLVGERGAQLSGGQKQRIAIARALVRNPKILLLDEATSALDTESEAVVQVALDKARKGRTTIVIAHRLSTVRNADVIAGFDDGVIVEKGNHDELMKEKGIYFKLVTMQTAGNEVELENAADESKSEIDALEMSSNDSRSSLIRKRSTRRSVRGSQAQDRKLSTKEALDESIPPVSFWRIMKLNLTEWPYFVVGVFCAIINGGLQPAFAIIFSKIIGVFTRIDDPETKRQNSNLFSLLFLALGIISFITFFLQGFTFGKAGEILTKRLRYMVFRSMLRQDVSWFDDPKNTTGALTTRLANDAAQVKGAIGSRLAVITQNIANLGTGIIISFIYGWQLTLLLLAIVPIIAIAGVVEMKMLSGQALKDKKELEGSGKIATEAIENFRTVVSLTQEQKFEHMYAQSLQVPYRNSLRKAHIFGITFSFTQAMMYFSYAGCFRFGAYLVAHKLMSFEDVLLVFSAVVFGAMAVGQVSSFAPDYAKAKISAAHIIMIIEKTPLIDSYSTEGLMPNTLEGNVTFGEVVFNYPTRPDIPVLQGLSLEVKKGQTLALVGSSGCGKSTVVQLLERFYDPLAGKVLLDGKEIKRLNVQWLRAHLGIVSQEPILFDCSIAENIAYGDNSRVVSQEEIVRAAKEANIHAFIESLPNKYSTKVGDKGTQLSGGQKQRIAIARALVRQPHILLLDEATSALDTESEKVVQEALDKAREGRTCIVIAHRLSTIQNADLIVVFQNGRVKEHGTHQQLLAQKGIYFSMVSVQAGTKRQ
ASSAY_NAME: Inhibition of P-gp in human MCF7/ADR cells assessed as reversal of multidrug resistance by measuring relative enhancement intensity for adriamycin-induced cytotoxicity at 10 uM after 48 hrs by SRB colorimetric assay
Format: cell-based
Design: scale not given: the % may be the effect or the level left
SETUP_CONDITIONS: nci/adr-res
// NB: equality with 10% counts as rule not met; only Activity strictly below is rule met

Task: Activity strictly < 10% for this molecule? C=C1CC[C@H]2[C@@H](/C=C(\C)C(=O)[C@@]3(O)C[C@H](C)[C@H](O)[C@@H]3[C@H]1OC(=O)Cc1cccc3ccccc13)C2(C)C
Result: rule not met

Task: What about C=C1CC[C@H]2[C@@H]([C@@H]3O[C@]4(C[C@H](C)[C@H](OC(=O)Cc5ccccc5)[C@@H]4[C@H]1OC(=O)Cc1ccccc1)C(=O)[C@@H]3C)C2(C)C ?
Result: rule met

Task: What about C=C1CC[C@H]2[C@@H](/C=C(\C)C(=O)[C@@]3(O)C[C@H](C)[C@H](OC(=O)c4ccccc4)[C@@H]3[C@H]1OC(=O)Cc1cccc3ccccc13)C2(C)C ?
Result: rule not met

Task: What about C=C1CC[C@H]2[C@@H]([C@@H]3O[C@]4(C[C@H](C)[C@H](OC(=O)CCc5ccccc5)[C@@H]4[C@H]1OC(=O)CCc1ccccc1)C(=O)[C@@H]3C)C2(C)C ?
Result: rule met

Task: What about C=C1CC[C@H]2[C@@H]([C@@H]3O[C@]4(C[C@H](C)[C@H](OC(=O)CCC)[C@@H]4[C@H]1OC(=O)CCC)C(=O)[C@H]3C)C2(C)C ?
Result: rule met

Task: What about C=C1CC[C@H]2[C@@H](/C=C(\C)C(=O)[C@@]3(O)C[C@H](C)[C@H](O)[C@@H]3[C@H]1OC(=O)CCCC)C2(C)C ?
Result: rule met

Task: What about C=C1CC[C@H]2[C@@H](/C=C(\C)C(=O)[C@@]3(O)C[C@H](C)[C@H](OC(=O)Cc4ccccc4)[C@@H]3[C@H]1OC(=O)Cc1ccccc1)C2(C)C ?
Result: rule met

Task: What about C=C1CC[C@H]2[C@@H](/C=C(\C)C(=O)[C@@]3(O)C[C@H](C)[C@H](O)[C@@H]3[C@H]1OC(C)=O)C2(C)C ?
Result: rule met

Task: What about C=C1CC[C@H]2[C@@H](/C=C(\C)C(=O)[C@@]3(O)C[C@H](C)[C@H](O)[C@@H]3[C@H]1OC(=O)Cc1ccccc1)C2(C)C ?
Result: rule met

Task: What about C=C1CC[C@H]2[C@@H]([C@@H]3O[C@]4(C[C@H](C)[C@H](OC(C)=O)[C@@H]4[C@H]1OC(C)=O)C(=O)[C@H]3C)C2(C)C ?
Result: rule not met

Task: What about C=C1CC[C@H]2[C@@H](/C=C(\C)C(=O)[C@@]3(O)C[C@H](C)[C@H](OC(=O)CCC)[C@@H]3[C@H]1OC(=O)CCC)C2(C)C ?
Result: rule met

Task: What about C=C1CC[C@H]2[C@@H](/C=C(\C)C(=O)[C@@]3(O)C[C@H](C)[C@H](O)[C@@H]3[C@H]1OC(=O)CCCCC)C2(C)C ?
Result: rule met

Task: What about C=C1CC[C@H]2[C@@H](/C=C(\C)C(=O)[C@@]3(O)C[C@H](C)[C@H](OC(=O)CCc4ccccc4)[C@@H]3[C@H]1OC(=O)CCc1ccccc1)C2(C)C ?
Result: rule met

Task: What about COc1ccc(CCN(C)CCCC(C#N)(c2ccc(OC)c(OC)c2)C(C)C)cc1OC (stereo not drawn) ?
Result: rule met

Task: What about C=C1CC[C@H]2[C@@H](/C=C(\C)C(=O)[C@@]3(O)C[C@H](C)[C@H](OC(=O)CC)[C@@H]3[C@H]1OC(=O)Cc1ccccc1)C2(C)C ?
Result: rule met

Task: What about C=C1CC[C@H]2[C@@H](/C=C(\C)C(=O)[C@@]3(O)C[C@H](C)[C@H](OC(=O)/C=C/c4ccccc4)[C@@H]3[C@H]1OC(=O)c1ccccc1)C2(C)C ?
Result: rule not met

Task: What about C=C1CC[C@H]2[C@@H]([C@@H]3O[C@]4(C[C@H](C)[C@H](OC(=O)c5ccccc5)[C@@H]4[C@H]1OC(=O)c1ccccc1)C(=O)[C@@H]3C)C2(C)C ?
Result: rule met

Task: What about C=C1CC[C@H]2[C@@H](/C=C(\C)C(=O)[C@@]3(O)C[C@H](C)[C@H](O)[C@@H]3[C@H]1OC(=O)CC)C2(C)C ?
Result: rule not met

Task: What about C=C1CC[C@H]2[C@@H](/C=C(\C)C(=O)[C@@]3(O)C[C@H](C)[C@H](O)[C@@H]3[C@H]1O)C2(C)C ?
Result: rule met

Task: What about C=C1CC[C@H]2[C@@H](/C=C(\C)C(=O)[C@@]3(O)C[C@H](C)[C@H](OC(=O)c4ccccc4)[C@@H]3[C@H]1OC(=O)c1ccccc1)C2(C)C ?
Result: rule not met

Task: What about C=C1CC[C@H]2[C@@H]([C@@H]3O[C@]4(C[C@H](C)[C@H](OC(=O)Cc5cccc6ccccc56)[C@@H]4[C@H]1OC(=O)Cc1cccc4ccccc14)C(=O)[C@H]3C)C2(C)C ?
Result: rule not met

Task: What about C=C1CC[C@H]2[C@@H](/C=C(\C)C(=O)[C@@]3(O)C[C@H](C)[C@H](OC(=O)CC)[C@@H]3[C@H]1OC(=O)Cc1cccc3ccccc13)C2(C)C ?
Result: rule not met
